Give GI50 for every item shown.
- Tested on: RXF 631
- assay-notes: NCI tumour cell line growth inhibition, 48 h
The source made the active and inactive calls. No stated cut-off is given here; in the data, active = GI50 up to about 1.1 µM and inactive = higher.

compound	test-result
CC1(C2CCC3(C)OC3C2)CO1 (stereo unspecified)	> 100 µM (inactive)
COC(=O)C(=O)C(C(=O)C(=O)Nc1cc([N+](=O)[O-])ccc1C#N)c1nc2ccccc2nc1O (stereo unspecified)	> 100 µM (inactive)
CCCOP1(=O)C=C(C)C(Cl)=C(C)C1 (stereo unspecified)	37.1 µM (inactive)
CCOC(=O)C(=O)NCCCN1CCOCC1	> 100 µM (inactive)
COC(=O)c1c(N)n[nH]c1N	> 100 µM (inactive)

Then there is this compound:
### Prompt Answer with reported GI50 of `C/C(CCn1[nH]c(=O)ccc1=O)=N\NC(=O)C(=O)NN`
### Response > 100 µM (inactive)

The values you see were collected from ChEMBL document CHEMBL1201862.
